Reference source: PubChem BioAssay (EPA / NIEHS)

# Read-out: E-selectin (Homo sapiens)
# protocol-text: BSK_LPS_Eselectin: BioMAP Diversity Plus: LPS Assay for Eselectin Biomarker Activity (AID 2283077)
# measurement-context: primary human HUVEC with PBMC; actives raise or lower the signal
Activity calls are given as the source filed them. The calls were made as follows: active = hit-call score of the fitted dose curve at least 0.9, where 1 is the maximum; inactive = score below 0.9.
Respond only with the outcome that fits, drawn from active, inactive

Record excerpt, results attached:
> print(dat)
                                   compound  classification
1  FC(F)C(F)(F)OCC(Cn1cncn1)c1ccc(Cl)cc1Cl (stereo not drawn)        inactive
2                                 S=C1NCCN1        inactive
3  C#CCC1=C(C)C(OC(=O)C2C(C=C(C)C)C2(C)C)CC1=O (stereo not drawn)          active
4  CC(C1CC1)C(O)(Cn1cncn1)c1ccc(Cl)cc1 (stereo not drawn)        inactive
5             Nc1c(Cl)cc([N+](=O)[O-])cc1Cl        inactive

Task item: Hello, I am checking results. What call was entered for COP(=O)(OC)C(O)C(Cl)(Cl)Cl (stereo not drawn) ?
Reply: inactive
